Source of measurements: PubChem BioAssay (NCI)

- Tested on: NCI-H23 lung
- test description: NCI-60 one-dose screen, 48 h (100 = growth as untreated, 0 = no growth, -100 = all killed)
- protocol conditions: 10 µM unless noted
- Procedure: Growth inhibition of the NCI-H23 human Non-Small Cell Lung tumor cell line is measured as a screen for anti-cancer activity. Cells are grown in 96 well plates and exposed to the test compound for 48 hours. Compounds are tested at a single concentration, which is 10^-5 M for most compounds. The reported endpoint is percent growth (GI% or GIPRCNT), where numbers from 0 - 100% represent growth inhibition, and numbers from -100% - 0 represent cell death. […]
About 83,000 compounds went through this panel and 20% of them were active in at least one assay; those are over-represented in the sample as a whole. The source made the active and inactive calls. Rule for the calls: active = growth percent below 10; inactive = the rest.
compounds and their reported growth

Solved cases (3 shown):
{"compound": "COCCn1cc(-c2nc(-c3cn(CCOC)c4ncccc34)cs2)c2cc(F)ccc21", "property": "growth", "reading": "53.5% (inactive)"}
{"compound": "COc1ccc(OC)c(Nc2nnc(-c3cc(OC)c(OC)c(OC)c3)o2)c1", "property": "growth", "reading": "90.5% (inactive)"}
{"compound": "O=C(/C=C/c1ccccc1Cl)c1cccc(OCCCCOc2cccc(C(=O)/C=C/c3ccccc3Cl)c2)c1", "property": "growth", "reading": "96.5% (inactive)"}

Turning to the following compound.
-- ask # growth lookup, item CCOC(=O)CNC1=C(Cl)C(=O)N(Cc2ccc(Cl)cc2)C1=O
-- reply 102% (inactive)

====

- Tested on: COLO 205 colon
- test description: NCI-60 one-dose screen, 48 h (100 = growth as untreated, 0 = no growth, -100 = all killed)
- protocol conditions: 10 µM unless noted
This is part of a sample that, as a whole, favours compounds with a hit. Of some 83,000 tested, about 20% had one in any assay.
# note: exactly 20% is not below, so it is f; use t for growth strictly under it

Example entries and their recorded answers appear below.
{"compound": "Cc1[nH]c(C(=O)Nc2ccccc2OC2CCN(CCN3CCOCC3)CC2)c(Cl)c1Cl", "discrete label": "f"}
{"compound": "COc1ccc2c(c1)C(C)Cc1c(ncnc1-n1cnc3cc(C)ccc31)N2C (stereo not drawn)", "discrete label": "t"}
{"compound": "Cc1ccc(O)c(NC(=O)c2cccc(Nc3ccnc(C(F)(F)F)c3)c2)c1", "discrete label": "f"}
{"compound": "CS(=O)(=O)Nc1cc(-c2ccc3ncnc(Nc4ccc5c(cnn5Cc5ccccc5F)c4)c3c2)cnc1Cl", "discrete label": "f"}
{"compound": "C=CN(C(=O)N1CCN(c2cc3c(cc2F)c(=O)c(C(=O)O)cn3C2CC2)CC1)c1nc(-c2ccccc2)cs1", "discrete label": "f"}
{"compound": "Cc1ccccc1N1CCN(C(=S)c2ccccc2)CC1", "discrete label": "f"}

-- ask Does COCCn1cc(-c2nc(-c3c[nH]c4ncccc34)cs2)c2ccccc21 have growth strictly under 20%?
-- reply f

-- ask Does COC1C(O)CC(OC2CC(OC3CC(O[C@@H]4C(=O)c5c(cc6cc(OC7CC(OC8CC(O)C(O)C(C)O8)C(O)C(C)O7)c(C)c(O)c6c5O)CC4[C@H](OC)C(=O)C(C)=O)OC(C)C3O)OC(C)C2O)OC1C (stereo partly drawn) have growth strictly under 20%?
-- reply t
